Provenance of the data: patent US5220042A

- system-tested: 5-lipoxygenase (Cavia porcellus)
- Construct: endogenous in cells; host or cells: guinea pig (Hartley strain) casein-elicited peritoneal exudate cells, intact cell suspension
- Sequence (A0A286X958 1-674): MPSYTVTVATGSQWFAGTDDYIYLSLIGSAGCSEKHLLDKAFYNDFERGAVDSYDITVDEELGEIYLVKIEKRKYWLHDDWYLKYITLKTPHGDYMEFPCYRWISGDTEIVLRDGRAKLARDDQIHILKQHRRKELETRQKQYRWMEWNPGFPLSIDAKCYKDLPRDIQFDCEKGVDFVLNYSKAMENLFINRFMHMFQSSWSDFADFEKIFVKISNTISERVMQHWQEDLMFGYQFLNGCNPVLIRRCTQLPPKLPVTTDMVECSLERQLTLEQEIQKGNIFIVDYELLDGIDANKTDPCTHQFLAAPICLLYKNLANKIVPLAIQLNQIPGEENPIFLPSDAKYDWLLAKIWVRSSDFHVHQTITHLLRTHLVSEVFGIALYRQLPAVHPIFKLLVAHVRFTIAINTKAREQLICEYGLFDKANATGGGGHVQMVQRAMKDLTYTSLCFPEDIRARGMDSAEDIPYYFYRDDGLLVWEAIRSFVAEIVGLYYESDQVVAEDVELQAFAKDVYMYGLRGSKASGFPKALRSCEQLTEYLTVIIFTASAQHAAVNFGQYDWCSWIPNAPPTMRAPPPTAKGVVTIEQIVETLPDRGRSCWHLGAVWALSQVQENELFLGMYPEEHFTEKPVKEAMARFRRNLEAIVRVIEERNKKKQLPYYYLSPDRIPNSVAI
- measurement-description: 5-Lipoxygenase inhibitory activity (conversion of 14C-arachidonic acid to 5-HETE) in guinea pig peritoneal exudate cells
- Assay type: cell-based, guinea pig (Hartley strain)
- measurement-parameters: concentration 3 × 10^-7 M; read-out: inhibition ratio (%) of 5-lipoxygenase activity
parameter-measured: inhibition at 0.3 µM (%)

The following compounds have reported results that may help.
COC1=CC(=O)C(OC)=C(CCCCCCCC2OC2CCCCCCCC2=C(OC)C(=O)C=C(OC)C2=O)C1=O (stereo not drawn)
24
COC1=CC(=O)C(OC)=C(CCCCCCCCCCCCC2=C(OC)C(=O)C=C(OC)C2=O)C1=O
37
CCCCC#CCCCCCCCCCC1=C(OC)C(=O)C=C(OC)C1=O
36
COC1=CC(=O)C(O)=C(CCCCCCCC2OC2CCCCCCCC2=C(O)C(=O)C=C(OC)C2=O)C1=O (stereo not drawn)
92
COC1=CC(=O)C(OC)=C(CCCCCC2=C(OC)C(=O)C(C)=C(OC)C2=O)C1=O
33
CCCCC#CCCCCCCCC1=C(OC)C(=O)C=C(OC)C1=O
43
COC1=CC(=O)C(OC)=C(CCCCCC2=C(OC)C(=O)C=C(OC)C2=O)C1=O
55
COC1=CC(=O)C(OC)=C(CCCCCCC2=C(OC)C(=O)C=C(OC)C2=O)C1=O
58

A. COC1=CC(=O)C(O)=C(CCCCCCC/C=C\CCCCCCCc2cc(O)cc(O)c2)C1=O
B. COC1=CC(=O)C(OC)=C(CCCCCC#CCCCCCC2=C(OC)C(=O)C=C(OC)C2=O)C1=O
C. CCCC/C=C\CCCCCC1=C(OC)C(=O)C=C(OC)C1=O
Enquiry: Hey, quick one: sort these by inhibition at 0.3 µM, low to high? Your reply should list the labels following the order given in the request.
Return: A, C, B

A. COC1=CC(=O)C(OC)=C(CCCCCCCCC2=C(OC)C(=O)C=C(OC)C2=O)C1=O
B. CCCCC#CCCCCCC1=C(OC)C(=O)C=C(OC)C1=O
Enquiry: Pick one, A or B : lowest reported inhibition at 0.3 µM. Provide the label of your selected option as the answer.
Return: B

I. CCCC/C=C\CCCCCCCC1=C(O)C(=O)C=C(OC)C1=O
II. COC1=C(C)C(=O)C(OC)=C(CCCCCC2=C(OC)C(=O)C(C)=C(OC)C2=O)C1=O
III. COC1=CC(=O)C(O)=C(CCCCCCC/C=C\CCCCCCCC2=C(O)C(=O)C(C)=C(OC)C2=O)C1=O
Enquiry: // sort entries: inhibition at 0.3 µM, high to low Answer by naming the labels in the order asked.
Return: II, III, I
(II: 79%, III: 44%, I: 22%)

a. CCCC/C=C\CCCCCCCC1=C(OC)C(=O)C=C(OC)C1=O
b. COC1=CC(=O)C(OC)=C(CCCCCCCCCCC2=C(OC)C(=O)C=C(OC)C2=O)C1=O
Enquiry: Select the item whose inhibition at 0.3 µM value is smaller, choosing between a and b . Respond using the label that marks the chosen record.
Return: a
(a: 26%, b: 78%)
